The reader will find reported pIC50 values listed item by item below.
target: NS3h_1b(con1) (Hepatitis C virus genotype 1b, UniProt Q9WMX2); construct: truncated C-terminally His-tagged NS3 proteins lacking the N-terminal protease, called NS3h; His-tag (C); made in house; assay: RNA-stimulated ATP hydrolysis, pH 7.5, HCV; format: biochemical, hepatitis C virus genotype 1b(con1)
Sequence (Q9WMX2 1192-1657): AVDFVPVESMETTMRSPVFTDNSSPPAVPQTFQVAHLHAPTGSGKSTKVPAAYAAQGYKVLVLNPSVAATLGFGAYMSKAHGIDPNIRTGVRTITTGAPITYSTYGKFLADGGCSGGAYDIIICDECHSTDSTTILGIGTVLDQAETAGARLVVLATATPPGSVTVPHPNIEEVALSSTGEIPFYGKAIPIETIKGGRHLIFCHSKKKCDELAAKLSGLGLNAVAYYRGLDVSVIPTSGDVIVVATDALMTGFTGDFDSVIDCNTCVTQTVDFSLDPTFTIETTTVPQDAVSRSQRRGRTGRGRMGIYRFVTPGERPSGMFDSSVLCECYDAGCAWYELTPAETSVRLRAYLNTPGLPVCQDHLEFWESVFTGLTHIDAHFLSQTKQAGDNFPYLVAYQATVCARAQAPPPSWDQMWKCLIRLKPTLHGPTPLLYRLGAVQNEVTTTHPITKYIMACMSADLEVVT
In simple prose, pIC50 is minus the logarithm base ten of a concentration in moles per litre.

# annotated cases, reported pIC50 shown
>>> measured_number("Cc1ccc2nc(-c3ccc4nc(-c5ccc(NC(=O)c6cccc(Cl)c6)cc5)sc4c3)sc2c1S(=O)(=O)O")
4.29
>>> measured_number("Cc1ccc2nc(-c3ccc4nc(-c5ccc(NC(=O)c6cc(C(F)(F)F)ccc6F)cc5)sc4c3)sc2c1S(=O)(=O)O")
4.72
>>> measured_number("Cc1ccc2nc(-c3ccc4nc(-c5ccc(NC(=O)c6ccc7ccccc7c6)cc5)sc4c3)sc2c1S(=O)(=O)O")
4.28

Attention now shifts to the item below.
Request: Any idea what its pIC50 is? The molecule is Cc1ccc2nc(-c3ccc4nc(-c5ccc(NC(=O)c6ccc7nc(-c8ccc(N)cc8)sc7c6)cc5)sc4c3)sc2c1S(=O)(=O)O
Response: 3.82

###

target: HCV NS3 helicase NS3h_1b(con1) (Hepatitis C virus genotype 1b, UniProt Q9WMX2); construct: truncated C-terminally His-tagged NS3 proteins lacking the N-terminal protease, called NS3h; His-tag (C); made in house; assay: MBHA screen of NCI mechanistic set library at 20 μM (percent inhibition, compound interference); format: biochemical; details: compounds at 20 μM, MBHA with DNA substrate; calculated from Equation 1
Metric Name: Inh. (%) (Inhibition)

Observe how each entry below is paired with its result.
>>> result("CN1CCC23c4ccccc4NC1C21CCN(C)C3Nc2ccccc21")
"−8.6%"
>>> result("COC1OC(COCc2ccc(Cl)cc2)C(OCc2ccc(Cl)cc2)C1O (centres unmarked)")
"15.1%"
>>> result("COc1ccc(C=CC(=O)Oc2cc(O)cc(O)c2)cc1")
"4.7%"
>>> result("S=C=NCc1ccccc1")
"13.9%"
>>> result("O=c1[nH]c(=O)n(C2OC(CO)C(O)C2O)cc1F (centres unmarked)")
"6.1%"
>>> result("CC1=CC(O)C(O)C2(C)C1CC1OC(=O)C(O)C3C(C)C(O)C4(O)OCC13C42 (centres unmarked)")
"20.9%"

Request: Request the reported Inh. (%) (Inhibition) associated with CN1CCN(CN2C(=O)C3C4C=CC(C3C2=O)C2C3C(=O)N(CN5CCN(C)CC5)C(=O)C3C42)CC1 (centres unmarked)
Response: 21.8%

Request: Form field: reported Inh. (%) (Inhibition) of C=CC(=O)N1C/C(=C\c2ccccc2)C(=O)/C(=C/c2ccccc2)C1
Response: 15.6%

Request: Which Inh. (%) (Inhibition) value is on record for [O-][S+]1c2ccccc2N=C(c2cccc3ccccc23)CC1c1cccc2ccccc12 (centres unmarked) ?
Response: −14.5%

###

Measured Int.* (Ratio) (Interference), listed per entry for reference.
target: HCV NS3 helicase NS3h_1b(con1) (Hepatitis C virus genotype 1b, UniProt Q9WMX2); construct: truncated C-terminally His-tagged NS3 proteins lacking the N-terminal protease, called NS3h; His-tag (C); made in house; test: MBHA screen of NCI mechanistic set library at 20 μM (percent inhibition, compound interference); type: biochemical; details: compounds at 20 μM; assay interference calculated with Equation 2 (fluorescence vs DMSO-only controls before ATP)
Report only the number, with the unit Ratio understood.

Recorded Int.* (Ratio) (Interference), per entry:
>>> measured_number("NC(=S)N/N=C/c1ccc(OC(=O)COc2ccccc2Cl)cn1")
0.90
>>> measured_number("CC(=O)O[C@H]1C(=O)[C@@]2(C)[C@H]([C@H](OC(=O)c3ccccc3)[C@]3(O)C[C@H](O)C(C)=C1C3(C)C)[C@]1(OC(C)=O)CO[C@@H]1C[C@@H]2O")
0.88
>>> measured_number("CC(/C=C/C(O)=C1/C(=O)CNC1=O)=C\\[C@@H](C)[C@H]1O[C@]2(C)O[C@@H](C(=O)[C@@H]3O[C@@]32C)[C@@H]1C")
0.90
>>> measured_number("COC1CC(OC2CCC3(C=O)C4CCC5(C)C(C6=CC(=O)OC6)CCC5(O)C4CCC3(O)C2)OC(C)C1OC1OC(COC2OC(CO)C(O)C(O)C2O)C(O)C(O)C1O (stereo not shown)")
0.98
>>> measured_number("C=C1CC[C@@H]2[C@](C)(CO)[C@H](O)CC[C@@]2(C)[C@@H]1C/C=C1/C(=O)OC[C@H]1O")
0.98

Request: Using the record for OCC1OC(n2cnc3c(SCc4ccccc4)ncnc32)C(O)C1O (stereo not shown) , report its Int.* (Ratio) (Interference).
Response: 0.89

Request: What value of Int.* (Ratio) (Interference) has been reported for the following compound? C/C(=N\N=C(/[Se])N1CC2CCC(CC2)C1)c1ccccn1
Response: 0.90

###

target: HCV NS3 helicase NS3h_1b(con1) (Hepatitis C virus genotype 1b, UniProt Q9WMX2); construct: truncated C-terminally His-tagged NS3 proteins lacking the N-terminal protease, called NS3h; His-tag (C); made in house; assay: MBHA screen of NCI mechanistic set library at 20 μM (percent inhibition, compound interference); format: biochemical; conditions: compounds at 20 μM, MBHA with DNA substrate; calculated from Equation 1
Metric Name: Inh. (%) (Inhibition)
Numeric only. Scale: %

>>> measured_number("C[n+]1ccc(-c2cc[n+](C)cc2)cc1.[Cl-].[Cl-]")
"−8.7"
>>> measured_number("CCN(CC)CCNC(=O)c1nn(-c2ccc(Cl)cc2)c2c1CCc1cc(OC)ccc1-2")
28.3
>>> measured_number("CCN(CC)CCNc1ccc(CO)c2sc3ccccc3c(=O)c12")
53.1
>>> measured_number("CCN(CC)CCNc1ccc2nc(C)n3c4ccc(OC)cc4c(=O)c1c23.Cl")
37.7
>>> measured_number("O=C(CC(=O)C(F)(F)F)c1csc2ccccc12")
"−10.6"

Request: Can you look up the measured Inh. (%) (Inhibition) of CC[C@@]1(O)C[C@H](O[C@H]2C[C@H](N(C)C)[C@H](O)[C@H](C)O2)c2c(cc3c(c2O)C(=O)c2c(O)ccc(O)c2C3=O)[C@H]1C(=O)OC for me?
Response: 31.5

Request: I have this compound here, CN(C)[C@H]1CCC2[C@@H]3CCC4C[C@@H](NC(=O)NC(Cc5ccccc5)c5nccs5)CC[C@]4(C)C3CC[C@@]21C (stereo partly shown) , and I need its recorded Inh. (%) (Inhibition).
Response: 1.6

Request: What measured Inh. (%) (Inhibition) goes with O=C(C[n+]1ccc2ccccc2c1)c1ccc2ccc3ccccc3c2c1 ?
Response: 18.7

Request: I would be grateful if you could share the reported Inh. (%) (Inhibition) for Cc1cc(NC(=O)NC(=O)c2ccccc2NC(=O)CN)ccc1Oc1ncc(Br)cn1.Cl .
Response: 1.1

Request: Suppose we examine the compound Cc1ccc(S(=O)(=O)N2CCSCCSCCSCCSCC2)cc1 ; what Inh. (%) (Inhibition) value has been reported?
Response: −1.2

Request: Report Inh. (%) (Inhibition) for O=C1N[C@@H]2C(=C[C@H](O)[C@@H](O)[C@H]2O)c2cc3c(cc21)OCO3 please.
Response: 4.1

Request: What measured Inh. (%) (Inhibition) goes with O=C1C(c2cnc3ccccc3n2)=C(O)c2ccccc21 ?
Response: 2.7

Request: What value of measured Inh. (%) (Inhibition) is listed for CN(C)c1ccc(/C=C/C(=O)c2ccccc2)cc1Br ?
Response: 14.9

Request: Quick check: Inh. (%) (Inhibition) of COc1cc2c(c(OC)c1OC)-c1c(cc3c(c1OC)OCO3)CC(C)C(C)(O)C2OC(=O)c1ccccc1 (stereo not shown) ?
Response: 13.8

Request: Entry CC1Oc2cc3c(-c4c(O)cc(O)c5c(O)c6c(cc45)OC(C)C(C)C6=O)c(O)cc(O)c3c(O)c2C(=O)C1C (stereo not shown) : reported Inh. (%) (Inhibition) = ?
Response: −17.6

Request: Bench note: what Inh. (%) (Inhibition) did COc1cc2c[n+](C)c3c4cc5c(cc4ccc3c2cc1OC)OCO5 show?
Response: 34.3

Request: Record request: Inh. (%) (Inhibition) value, item COC(=O)C(=O)C(C(=O)Nc1cccc(C)c1C)C1Sc2ccccc2NC1=O (stereo not shown)
Response: −7.3

Request: Any idea what Inh. (%) (Inhibition) was measured for CCn1c(O)c(C=Nc2ccccc2)s/c1=N/Nc1ncc(CC(=O)Nc2ccccc2C)s1 ?
Response: −18.3

Request: Which Inh. (%) (Inhibition) value is on record for C[C@@H]1CC[C@@]2(OC1)O[C@H]1CC3[C@@H]4CC=C5C[C@@H](O[C@@H]6O[C@H](CO)[C@@H](O[C@@H]7O[C@@H](C)[C@H](O[C@@H]8O[C@@H](C)[C@H](O)[C@@H](O)[C@@H]8O)[C@@H](O)[C@H]7O)[C@H](O)[C@H]6O[C@@H]6O[C@@H](C)C(O)[C@@H](O)[C@H]6O)CC[C@]5(C)[C@H]4CC[C@]3(C)[C@H]1[C@@H]2C (stereo partly shown) ?
Response: 1.3

Request: Which measured Inh. (%) (Inhibition) value corresponds to Cc1ccc(NC(=O)/C=C/c2ccccc2)c(C)c1 ?
Response: −2.3

Request: Item under review: CCOC(=O)c1cc2c(OC)cc(OC)cc2oc1=O . Reported Inh. (%) (Inhibition)?
Response: 6.3

Request: Name the recorded Inh. (%) (Inhibition) for CC12CCC3C(CCC4CC(OC(=O)Cc5ccc(N(CCCl)CCCl)cc5)CCC43C)C1CCC(=O)N2 (stereo not shown) .
Response: 34.9

Entry source: patent US9464064B2
